target: Histone deacetylase (Homo sapiens) (UniProt Q13547+O15379+Q9UBN7+Q92769+Q9UQL6+Q8WUI4+Q9BY41+Q96DB2+P56524+Q9UKV0+Q969S8); conditions: at 100 µM;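 also: Cell-free test of HDAC enzyme taken from HeLa cell nuclear extracts, measuring how much its activity is blocked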
Description: In vitro inhibitory activity against histone deacetylase (HDAC) isolated from HeLa nuclear extract at a concentration of 100 uM
Experimental readout: inhibition (%)

O=C(CCCCCCC(=O)OCCO)Nc1ccccc1    5
O=C(CBr)NCCCCCCCC(=O)Nc1ccccc1    40
NCCNC(=O)CCCCCCC(=O)Nc1ccccc1    3
CCOC(=O)NCCCCCCC(=O)Nc1ccccc1    19
O=C(CCCCCCC(=O)c1ccccn1)Nc1ccccc1    15

(1) NC(=O)NCCCCCCC(=O)Nc1ccccc1
(2) O=C(CCCCCC/C(=N/O)c1ccccn1)Nc1ccccc1
(3) O=C(CCCCCCNC(=O)C(F)(F)F)Nc1ccccc1
(4) O=C(CBr)NCCCCCCC(=O)Nc1ccccc1
## Task Rank by inhibition (largest to smallest). Give the labels in the order specified.
## Result 4, 1, 3, 2
(4: 79%, 1: 7%, 3: 3%, 2: 0%)
